TARGET UNDER TEST: Hexose transporter 1 (Plasmodium falciparum)
ASSAY EXPLANATION: ST_JUDE_LEISH: Cytotoxicity at 2uM final concentration against transgenic Leishmania Mexicana promastigotes LmPfHT that are glucose transport deficient and complemented with the Plasmodium falciparum hexose transporter. Activity is measured by DNA content using SYBR green in vitro
Type: functional
Use Fulfilled when the recorded inhibition is no lower than 2%; use Not fulfilled when it is lower.

stdin: Does inhibition meet or surpass 2% for COc1cc(-c2nnc(SCC(=O)Nc3cc(C)on3)n2C)cc(OC)c1O ?
stdout: Fulfilled

stdin: Does the reported inhibition for N#Cc1ccc(N2CCN(Cc3ccc(-c4ccc(-c5nc6cc(C(F)(F)F)ccc6[nH]5)cc4)cc3)CC2)nc1 fall at or above the 2% mark?
stdout: Fulfilled

stdin: Answer whether inhibition of Cc1[nH]c(C)c([N+](=O)[O-])c(=O)c1-c1ccc(Oc2ccccc2)cc1 is greater than or equal to 2%.
stdout: Not fulfilled

stdin: Does the molecule O=S(=O)(NCCN1CCCC1)c1ccc(-c2cccc(CNCc3ccsc3)c2)s1 have recorded inhibition that is 2% or more?
stdout: Fulfilled

stdin: Could you please find out whether CCCNCc1ccc(-c2ccc(CN(Cc3cnc(C)cn3)C(=O)/C=C/c3ccccc3C)cc2)nc1 has inhibition that meets 2% or exceeds it?
stdout: Not fulfilled

stdin: Kindly determine if inhibition recorded for O=C(Nc1cccc(CN2CCCN(Cc3ccc(O)cc3)CC2)c1)c1cccc(Cl)c1 is above or exactly 2%.
stdout: Fulfilled

stdin: Hello, I need to know if COc1cc2ccccc2cc1CNCCCCCCNCc1cc2ccccc2cc1OC has measured inhibition not below 2%. Thanks!
stdout: Fulfilled

stdin: State whether the measured inhibition reaches 2%, counting equality as reaching it, for Nc1c2c(nc3ccc(Oc4ccc(Br)cc4Br)cc13)CCCC2
stdout: Fulfilled

stdin: Record Cc1ccc2c(Cl)c(C(=O)N3CC(C)OC(C)C3)sc2c1 (stereo unspecified) ; criterion: inhibition no lower than 2%. Met?
stdout: Not fulfilled

stdin: Does the molecule COc1cccc(CN(C(=O)Nc2ccccc2F)[C@H]2C[C@H]3C(=O)Nc4cc(F)ccc4C(=O)N3C2)c1 have recorded inhibition that is 2% or more?
stdout: Fulfilled

stdin: Is inhibition for CCN(CC)CCN(Cc1ccc(-c2ccc(C(F)(F)F)cc2)cc1)C(=O)Cn1c(SCc2ccc(F)cc2)nc(=O)c2sccc21 at or above 2%?
stdout: Fulfilled

stdin: Is reported inhibition greater than or equal to 2% here: CCn1ccc2c3c(N)nc(N)nc3ccc21
stdout: Fulfilled

stdin: Decide: is the reported value of inhibition for CCc1cn(CC(=O)N(CCOc2ccc(-c3ccc(C(F)(F)F)cc3)cc2)CCN(CC)CC)c(SCc2ccc(F)cc2)nc1=O equal to or greater than 2%?
stdout: Not fulfilled

stdin: Say whether O=C(Nc1cc(Cl)ccc1-n1cncn1)C1(c2ccccc2)CC1 shows inhibition of 2% or more.
stdout: Fulfilled

* * *

Provide the reported inhibition of each item.
TARGET UNDER TEST: Hexose transporter 1 (Plasmodium falciparum) (UniProt O97467)
ASSAY EXPLANATION: ST_JUDE_LEISH: Cytotoxicity at 2uM final concentration against transgenic Leishmania Mexicana promastigotes LmPfHT that are glucose transport deficient and complemented with the Plasmodium falciparum hexose transporter. Activity is measured by DNA content using SYBR green in vitro
Format: functional
Numeric only. Scale: %

stdin: Report its inhibition with Hexose transporter 1 (Plasmodium falciparum) (UniProt O97467) as the test system: CC(=O)Nc1ccc(C(=O)Nc2cccc(-c3cccc(-c4nc5cccc(C)c5[nH]4)c3)c2)cn1
stdout: 3.64

stdin: Recall the reported inhibition of Cc1c[nH]c(-c2cccc(C(=O)NC3CCC(CCN4CCc5ccc(C#N)cc5CC4)CC3)c2)n1 (stereo not given) on Hexose transporter 1 (Plasmodium falciparum) (UniProt O97467) and write it down.
stdout: 1.04

stdin: Give inhibition for this entry on Hexose transporter 1 (Plasmodium falciparum) (UniProt O97467): O=C(Cn1cnc2c(nnn2Cc2ccccc2F)c1=O)Nc1ccc2c(c1)OCCO2
stdout: 0.66

stdin: Identify measured inhibition obtained with Hexose transporter 1 (Plasmodium falciparum) (UniProt O97467) for COc1ccc2nc(-c3cc(-c4ccc(NC(=O)CN5CCOCC5)cc4)cnc3N)[nH]c2c1 .
stdout: 44.4

stdin: Provide inhibition, tested on Hexose transporter 1 (Plasmodium falciparum) (UniProt O97467), for CC1(C)CCCN(Cc2c(O)ccc3c(O)c(-c4nc5ccccc5s4)c(=N)oc23)C1 .
stdout: 1.38

stdin: Please report the measured inhibition for CCCCCCCNC(=O)NCC1CCCN(CCCCCNC(=O)/C=C/c2ccc(Cl)c(Cl)c2)C1 (stereo not given) tested on Hexose transporter 1 (Plasmodium falciparum) (UniProt O97467).
stdout: 4.27

stdin: Provide measured inhibition on Hexose transporter 1 (Plasmodium falciparum) (UniProt O97467) for O=C(NCCN1CCCC1)c1ccc(-c2cccc(-c3nc4cc(F)ccc4[nH]3)c2)cc1 please.
stdout: 0

stdin: Please tell me the measured inhibition for Nc1nc(O)c2cc(CN(C=O)c3ccc(C(=O)N[C@@H](CCC(=O)O)C(=O)O)cc3)ccc2n1 ; system: Hexose transporter 1 (Plasmodium falciparum) (UniProt O97467).
stdout: 4.17

stdin: Answer with inhibition of O=S(=O)(c1c(Cl)cc(Cl)cc1Cl)N1CCCCC(c2ccc(Cl)cc2)=N1 measured for Hexose transporter 1 (Plasmodium falciparum) (UniProt O97467).
stdout: -1.87

stdin: // fetch inhibition; item: COc1cc(Nc2nccc(N3CCC(NC(=O)C(C)c4ccc(Cl)cc4)C3)n2)cc(OC)c1OC (stereo not given) ; system: Hexose transporter 1 (Plasmodium falciparum) (UniProt O97467)
stdout: -0.55

stdin: Recall the reported inhibition of Clc1ccc2c(NN=Cc3cccnc3)ccnc2c1 when tested on Hexose transporter 1 (Plasmodium falciparum) (UniProt O97467).
stdout: 0.59

stdin: Look up Hexose transporter 1 (Plasmodium falciparum) (UniProt O97467) data: inhibition of CCNC1=NC2=C(CC(C(C)(C)C)CC2)C2(CCC(C(C)(C)C)CC2)S1 (stereo not given) , then report it.
stdout: 4.3

stdin: Report measured inhibition on Hexose transporter 1 (Plasmodium falciparum) (UniProt O97467); entry: Cc1ccc(Nc2nc(-c3ccccn3)cs2)nc1
stdout: 65.5

stdin: Given COc1cccc(-c2cc3c(NCc4ccncc4)nccc3s2)c1 , report its inhibition on Hexose transporter 1 (Plasmodium falciparum) (UniProt O97467).
stdout: 3.46

stdin: Give reported inhibition for O=C(Nc1cccc(-c2nn3ccccc3c2-c2ccnc(Nc3ccc(C(=O)N4CCOCC4)cc3)n2)c1)c1c(F)cccc1F (Hexose transporter 1 (Plasmodium falciparum) (UniProt O97467))
stdout: 7.72

stdin: Enter recorded inhibition with Hexose transporter 1 (Plasmodium falciparum) (UniProt O97467) for O=C(N[C@@H](CC1CCCCC1)C(=O)NC1CCCc2ccccc21)c1ccc(O)c(-c2ccc(Cl)c(Cl)c2)c1 (stereo not given in full) here.
stdout: 0.75

stdin: Give inhibition; test system Hexose transporter 1 (Plasmodium falciparum) (UniProt O97467); compound O=S(=O)(NCCN1CCCC1)c1ccc(-c2ccc(CNCc3ccc(F)cc3)cc2)cc1
stdout: 6.71

stdin: Provide the reported inhibition (system: Hexose transporter 1 (Plasmodium falciparum) (UniProt O97467)) for N=C(N)NC(=O)Nc1ccc(Cl)c(C(F)(F)F)c1
stdout: 2.97

stdin: Give reported inhibition for COc1ccc(CNCc2cccc(-c3ccc(-c4nc5cccc(C)c5[nH]4)cc3)c2)cc1 (Hexose transporter 1 (Plasmodium falciparum) (UniProt O97467))
stdout: 9.73

stdin: Provide inhibition, tested on Hexose transporter 1 (Plasmodium falciparum) (UniProt O97467), for Cc1ccc(NC(=O)c2ccc3ncccc3c2)cc1OC1CCN(C(C)C)C1 (stereo not given) .
stdout: 10.2
